src = patent US10577363B2

- System Tested: SMYD3 (Homo sapiens (Human))
- Method Description: SMYD3 biochemical assay (SPA, 3H-SAM methylation of MEKK2 protein substrate)
- Experimental Conditions: read-out: SMYD3 Biochem IC50*
Would you mind telling me the reported IC50 of each entry?
All answers are understood in nM, so give the number only.

Problem: Entry "C[C@H]1C[C@@H](NC(=O)c2cc(C3CC3)on2)CCN1S(=O)(=O)CC[C@@H]1CCNC1" has what IC50?
Solution: 5.05

Problem: Entry "CC(C)CCNC1CCN(S(=O)(=O)N2[C@@H]3CC[C@H]2C[C@@H](NC(=O)c2cc(C4CC4)on2)C3)CC1" has what IC50?
Solution: 3.28

Problem: Entry "C[C@@H](C1CCNCC1)S(=O)(=O)N1[C@@H]2CC[C@H]1C[C@@H](NC(=O)c1cc(C3CC3)on1)C2" has what IC50?
Solution: 11.2
